# targetOrSystem: hPPAR delta (Homo sapiens, UniProt Q03181)
# Construct: expressed in transfected cells; host or cells: CV-1 cells
# Sequence (Q03181 211-439 limits assumed): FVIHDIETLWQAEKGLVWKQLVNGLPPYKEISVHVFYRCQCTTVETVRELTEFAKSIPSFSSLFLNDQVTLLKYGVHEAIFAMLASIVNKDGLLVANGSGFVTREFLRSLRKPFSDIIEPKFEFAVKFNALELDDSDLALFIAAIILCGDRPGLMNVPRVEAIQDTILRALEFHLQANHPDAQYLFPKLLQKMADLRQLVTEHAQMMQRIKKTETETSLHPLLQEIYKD
# runDescription: Transient transfection (transactivation) assay in CV-1 cells, GAL4-PPAR LBD chimera, SPAP reporter
# Assay type: cell-based
# reportedConditions: read-out: EC50 μM HPPARδ
# Text: Compounds were screened for functional potency in transient transfection assays in CV-1 cells for their ability to activate the PPAR subtypes (transactivation assay). A previously established chimeric receptor system was utilized to allow comparison of the relative transcriptional activity of the receptor subtypes on the same target gene and to prevent endogenous receptor activation from complicating the interpretation of results. […]
# Lookup of reported EC50 keyed by entry
Report only the number, with the unit µM understood.

// below: answered compounds
The compound listed as Cc1cc(CNC(=O)c2cc(-c3ccc(C(C)(C)C)cc3)n(C)n2)ccc1OC(C)(C)C(=O)O shows EC50 equal to 5.45

The compound listed as CCCCc1ccc(-c2cc(C(=O)NCc3cc(C)c(OC(C)(C)C(=O)O)c(C)c3)nn2C)cc1 shows EC50 equal to 0.449

The compound listed as Cc1cc(CNC(=O)c2cc(-c3ccc(N4CCCC4)cc3)n(C)n2)ccc1OC(C)(C)C(=O)O shows EC50 equal to 1.06

Others:
The compound listed as Cc1cc(CNC(=O)c2cc(-c3ccc(C(C)C)cc3)nn2C)ccc1OC(C)(C)C(=O)O shows EC50 equal to 0.82

* * *

# targetOrSystem: hPPAR gamma (Homo sapiens, UniProt P37231)
# Construct: expressed in transfected cells; host or cells: CV-1 cells
# runDescription: Transient transfection (transactivation) assay in CV-1 cells, GAL4-PPAR LBD chimera, SPAP reporter
# Type: cell-based
# reportedConditions: read-out: EC50 μM HPPARγ
Sorting guide: entries reporting EC50 beneath 0.07 µM go in the yes pile, the rest go in the no pile.

QUERY: Lab note: confirm whether the reported EC50 for this compound is below 0.07 µM, equality not counting. compound: COc1cc(CNC(=O)c2cc(-c3ccc(C(C)(C)C)cc3)nn2C)ccc1OC(C)(C)C(=O)O
RESULT: no

QUERY: Lab note: confirm whether the reported EC50 for this compound is below 0.07 µM, equality not counting. compound: C=CCc1cc(CNC(=O)c2cc(-c3ccc(C(C)(C)C)cc3)nn2C)ccc1OC(C)(C)C(=O)O
RESULT: no

* * *

# Lookup of reported log10 EC50 keyed by entry
# targetOrSystem: hPPAR alpha (Homo sapiens, UniProt Q07869)
# Construct: expressed in transfected cells; host or cells: CV-1 cells
# Sequence (Q07869 239-466 limits assumed): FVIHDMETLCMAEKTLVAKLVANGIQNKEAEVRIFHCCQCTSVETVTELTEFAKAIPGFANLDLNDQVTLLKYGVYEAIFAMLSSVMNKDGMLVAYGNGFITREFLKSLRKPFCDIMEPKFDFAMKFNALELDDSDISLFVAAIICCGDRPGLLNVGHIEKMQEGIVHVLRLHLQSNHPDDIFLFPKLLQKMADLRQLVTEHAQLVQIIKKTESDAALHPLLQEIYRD
# runDescription: Transient transfection (transactivation) assay in CV-1 cells, GAL4-PPAR LBD chimera, SPAP reporter
# Format: cell-based
# reportedConditions: read-out: EC50 μM HPPARα
# From the text: Compounds were screened for functional potency in transient transfection assays in CV-1 cells for their ability to activate the PPAR subtypes (transactivation assay). A previously established chimeric receptor system was utilized to allow comparison of the relative transcriptional activity of the receptor subtypes on the same target gene and to prevent endogenous receptor activation from complicating the interpretation of results. […]
A value of 2 here means EC50 of 100 in µM, since values are log10.

The compound listed as Cc1cc(CNC(=O)c2cc(-c3ccc(-c4ccccc4C)cc3)nn2C)ccc1OC(C)(C)C(=O)O shows log10 EC50 equal to -0.75

The compound listed as Cc1cc(CNC(=O)c2cc(-c3ccc(C(C)(C)C)cc3)nn2CCN2CCOCC2)ccc1OC(C)(C)C(=O)O shows log10 EC50 equal to -0.35

The compound listed as Cn1nc(C(=O)NCc2ccc(OC(C)(C)C(=O)O)cc2)cc1-c1ccc(C(C)(C)C)cc1 shows log10 EC50 equal to -1.15

The compound listed as Cc1cc(CNC(=O)c2cc(-c3ccc(-c4ccccc4C)cc3)n(C)n2)ccc1OC(C)(C)C(=O)O shows log10 EC50 equal to -1.03

The compound listed as CCCCc1ccc(-c2cc(C(=O)NCc3ccc(OC(C)(C)C(=O)O)c(C)c3)nn2C)cc1 shows log10 EC50 equal to -1.54

The compound listed as Cc1cc(CNC(=O)c2cc(-c3ccc(C(C)C)cc3)n(C)n2)ccc1OC(C)(C)C(=O)O shows log10 EC50 equal to -2.40

The compound listed as C=CCn1nc(-c2ccc(C(C)(C)C)cc2)cc1C(=O)NCc1ccc(OC(C)(C)C(=O)O)cc1 shows log10 EC50 equal to -0.72

The compound listed as Cc1cc(CNC(=O)c2cc(-c3ccc(Br)cc3)n(C)n2)ccc1OC(C)(C)C(=O)O shows log10 EC50 equal to -1.34

Others:
The compound listed as Cc1cc(CNC(=O)c2cc(Cc3ccc(C(C)(C)C)cc3)nn2C)ccc1OC(C)(C)C(=O)O shows log10 EC50 equal to -0.53

The compound listed as Cc1cc(CNC(=O)c2cc(-c3ccc(C(C)(C)C)cc3)nn2Cc2ccccc2)ccc1OC(C)(C)C(=O)O shows log10 EC50 equal to -0.94

* * *

# Lookup of reported EC50 keyed by entry
# targetOrSystem: hPPAR gamma (Homo sapiens)
# Construct: expressed in transfected cells; host or cells: CV-1 cells
# Sequence (P37231 238-503 limits assumed): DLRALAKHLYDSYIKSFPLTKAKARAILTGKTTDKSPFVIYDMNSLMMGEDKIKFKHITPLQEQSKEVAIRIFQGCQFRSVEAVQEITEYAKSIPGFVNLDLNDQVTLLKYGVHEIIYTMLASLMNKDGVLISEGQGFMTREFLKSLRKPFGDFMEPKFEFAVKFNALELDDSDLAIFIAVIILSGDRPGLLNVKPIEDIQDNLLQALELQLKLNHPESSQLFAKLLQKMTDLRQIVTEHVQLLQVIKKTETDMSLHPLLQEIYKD
# runDescription: Transient transfection (transactivation) assay in CV-1 cells, GAL4-PPAR LBD chimera, SPAP reporter
# Assay type: cell-based
# reportedConditions: read-out: EC50 μM HPPARγ
Report only the number, with the unit µM understood.

The reported EC50 value, hPPAR gamma (Homo sapiens), for C=CCn1nc(-c2ccc(C(C)(C)C)cc2)cc1C(=O)NCc1ccc(OC(C)(C)C(=O)O)c(C)c1 reads 0.059

The reported EC50 value, hPPAR gamma (Homo sapiens), for Cc1cc(CNC(=O)c2cc(-c3cccc(N4CCCC4)c3)nn2C)ccc1OC(C)(C)C(=O)O reads 0.779

The reported EC50 value, hPPAR gamma (Homo sapiens), for Cc1cc(CNC(=O)c2cc(-c3cccc(N4CCCCC4)c3)n(C)n2)ccc1OC(C)(C)C(=O)O reads 0.187

Others:
The reported EC50 value, hPPAR gamma (Homo sapiens), for Cc1cc(CNC(=O)Cc2cc(-c3ccc(C(C)(C)C)cc3)nn2C)ccc1OC(C)(C)C(=O)O reads 0.138

The reported EC50 value, hPPAR gamma (Homo sapiens), for Cn1nc(-c2ccc(C(C)(C)C)cc2)cc1C(=O)NCc1ccc(OC(C)(C)C(=O)O)cc1 reads 1.09

The reported EC50 value, hPPAR gamma (Homo sapiens), for COc1cc(CNC(=O)c2cc(-c3ccc(CC(C)C)cc3)n(C)n2)ccc1OC(C)(C)C(=O)O reads 0.13

The reported EC50 value, hPPAR gamma (Homo sapiens), for Cc1cc(CNC(=O)c2cc(-c3ccc(C(C)C)cc3)n(C)n2)ccc1OC(C)(C)C(=O)O reads 0.009

* * *

# targetOrSystem: hPPAR alpha (Homo sapiens, UniProt Q07869)
# Construct: expressed in transfected cells; host or cells: CV-1 cells
# runDescription: Transient transfection (transactivation) assay in CV-1 cells, GAL4-PPAR LBD chimera, SPAP reporter
# Type: cell-based
# reportedConditions: read-out: EC50 μM HPPARα
valueType: log10 of EC50 (log10 of the value in µM)
A value of 2 here means EC50 of 100 in µM, since values are log10.

The reported log10 of EC50 value, hPPAR alpha (Homo sapiens, UniProt Q07869), for Cc1cc(CNC(=O)c2cc(-c3ccc(N4CCCCC4)cc3)n(C)n2)ccc1OC(C)(C)C(=O)O reads -2.00

The reported log10 of EC50 value, hPPAR alpha (Homo sapiens, UniProt Q07869), for Cc1cc(CNC(=O)c2cc(-c3ccc(OCc4ccccc4)cc3)nn2C)ccc1OC(C)(C)C(=O)O reads -0.18

The reported log10 of EC50 value, hPPAR alpha (Homo sapiens, UniProt Q07869), for Cc1cc(CNC(=O)c2cc(-c3ccc(CC(C)C)cc3)nn2C)ccc1OC(C)(C)C(=O)O reads -1.29

The reported log10 of EC50 value, hPPAR alpha (Homo sapiens, UniProt Q07869), for COc1cc(CNC(=O)c2cc(-c3ccc(CC(C)C)cc3)n(C)n2)ccc1OC(C)(C)C(=O)O reads -0.75

The reported log10 of EC50 value, hPPAR alpha (Homo sapiens, UniProt Q07869), for Cc1cc(CNC(=O)c2cc(-c3ccc(C(C)(C)C)cc3)n(Cc3ccccc3)n2)ccc1OC(C)(C)C(=O)O reads -0.69

The reported log10 of EC50 value, hPPAR alpha (Homo sapiens, UniProt Q07869), for Cc1cc(CNC(=O)c2cc(-c3ccc(C(C)(C)C)cc3)nn2CC(=O)c2ccccc2)ccc1OC(C)(C)C(=O)O reads -0.59

Next up:
The reported log10 of EC50 value, hPPAR alpha (Homo sapiens, UniProt Q07869), for Cc1cc(CNC(=O)c2cc(-c3ccc(C(C)(C)C)cc3)nn2C)cc(C)c1OC(C)(C)C(=O)O reads -2.52
